Hi there, I'd appreciate the recorded inhibition for every entry that follows.
- MEASURED ON: MAPK14 (human) (UniProt Q16539)
- Sequence (Q16539 whole entry, looked up): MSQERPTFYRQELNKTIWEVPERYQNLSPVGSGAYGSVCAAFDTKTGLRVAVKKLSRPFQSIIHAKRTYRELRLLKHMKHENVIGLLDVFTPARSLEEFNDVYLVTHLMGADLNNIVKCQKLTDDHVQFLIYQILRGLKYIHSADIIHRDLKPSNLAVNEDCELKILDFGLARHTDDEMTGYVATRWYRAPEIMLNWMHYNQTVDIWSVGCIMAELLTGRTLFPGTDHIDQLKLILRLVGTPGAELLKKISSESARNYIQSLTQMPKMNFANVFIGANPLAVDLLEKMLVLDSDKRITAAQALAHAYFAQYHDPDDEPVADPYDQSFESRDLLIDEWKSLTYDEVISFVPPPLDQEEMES
- TEST: Inhibition of LPS Stimulated TNF Production by U937 Cells
- CONDITION CONTEXT: concentration not given here
Answer format: value, then unit.

                              sample_smiles  measured_attribute  observed_value
0  C[C@H](NS(=O)(=O)c1ccc(C#N)cc1)c1[nH]nc(-c2ccc(F)cc2)c1-c1ccncc1          inhibition             95%

Working through the 4 compounds below one at a time, give inhibition for each.
1. CC(C)NC(=O)N[C@H](C)c1[nH]nc(-c2ccc(F)cc2)c1-c1ccncc1
2. CCCCOc1ccc(NC(=O)NCc2[nH]nc(-c3ccc(F)cc3)c2-c2ccncc2)cc1
3. O=C(NCCc1[nH]nc(-c2ccc(F)cc2)c1-c1ccncc1)c1cccc(Br)c1
4. CC(C)c1cc(C(C)C)c(C(=O)N[C@H](C)c2[nH]nc(-c3ccc(F)cc3)c2-c2ccncc2)c(C(C)C)c1

["52%", "13%", "26%", "31%"]

* * *

Assignment: determine reported inhibition for the given compounds.
- MEASURED ON: MAPK14 (human)
- TEST: Inhibition of MAPK14 Kinase Activity by PHAS-I Assay
- CONDITION CONTEXT: concentration not given here
Numbers only, in %.

Observe how each entry below is paired with its result.
>>> print(df.to_string())
                              sample_smiles  observed_value
0  COCCN(CC1CCCCC1)C(=O)Cn1nc(-c2ccc(F)cc2)c(-c2ccncc2)c1C              63
1  CCCCOc1ccc(NC(=O)NCCc2[nH]nc(-c3ccc(F)cc3)c2-c2ccncc2)cc1              45
2  CCOC(=O)[C@H](Cc1ccccc1)NC(=O)Cn1nc(-c2ccc(F)cc2)c(-c2ccncc2)c1C              77
3  Cc1c(-c2ccncc2)c(-c2ccc(F)cc2)nn1CC(=O)Nc1ccc(S(=O)(=O)C(F)F)cc1              90
4  COc1ccc(OC)c(NC(=O)NCCc2[nH]nc(-c3ccc(F)cc3)c2-c2ccncc2)c1              76

Would you mind listing inhibition for each of the following compounds?
1. O=C(NCc1[nH]nc(-c2ccc(F)cc2)c1-c1ccncc1)c1cc(Cl)ccc1F
2. Cc1c(-c2ccncc2)c(-c2ccc(F)cc2)nn1CC(=O)N1CCSC1
3. CCC(=O)C(=O)CCCCCNC(=O)NCCc1[nH]nc(-c2ccc(F)cc2)c1-c1ccncc1
4. COc1cccc(C(=O)NCCc2[nH]nc(-c3ccc(F)cc3)c2-c2ccncc2)c1

1. 73
2. 63
3. 69
4. 54

* * *

Assignment: determine reported inhibition for the given molecules.
- MEASURED ON: MAPK14 (human)
- TEST: Inhibition of LPS Stimulated TNF Production by U937 Cells
- CONDITION CONTEXT: concentration not given here
One number for each entry, in %.

>>> df
                              sample_smiles     measured_on  display_unit  observed_value
0  C[C@@H](NS(=O)(=O)c1ccc(F)cc1Cl)c1[nH]nc(-c2ccc(F)cc2)c1-c1ccncc1  MAPK14 (human)             %              81

// for each molecule below, give its inhibition
1. C[C@H](NS(=O)(=O)c1ccccc1C(=O)O)c1[nH]nc(-c2ccc(F)cc2)c1-c1ccncc1
2. C[C@H](NS(=O)(=O)c1ccc(Cl)c(Cl)c1)c1[nH]nc(-c2ccc(F)cc2)c1-c1ccncc1
3. C[C@H](NC(=O)Cc1cccs1)c1[nH]nc(-c2ccc(F)cc2)c1-c1ccncc1

1. 70
2. 90
3. 28

Origin of measurements: the Kinase Knowledgebase extract (Sharma et al. 2016)
